Biological target: human α1B adrenoceptor (Homo sapiens, UniProt P35368)
Construct: The entire coding region of the α1B receptor (1563 bp); expressed in transfected cells
Sequence (P35368 1-520): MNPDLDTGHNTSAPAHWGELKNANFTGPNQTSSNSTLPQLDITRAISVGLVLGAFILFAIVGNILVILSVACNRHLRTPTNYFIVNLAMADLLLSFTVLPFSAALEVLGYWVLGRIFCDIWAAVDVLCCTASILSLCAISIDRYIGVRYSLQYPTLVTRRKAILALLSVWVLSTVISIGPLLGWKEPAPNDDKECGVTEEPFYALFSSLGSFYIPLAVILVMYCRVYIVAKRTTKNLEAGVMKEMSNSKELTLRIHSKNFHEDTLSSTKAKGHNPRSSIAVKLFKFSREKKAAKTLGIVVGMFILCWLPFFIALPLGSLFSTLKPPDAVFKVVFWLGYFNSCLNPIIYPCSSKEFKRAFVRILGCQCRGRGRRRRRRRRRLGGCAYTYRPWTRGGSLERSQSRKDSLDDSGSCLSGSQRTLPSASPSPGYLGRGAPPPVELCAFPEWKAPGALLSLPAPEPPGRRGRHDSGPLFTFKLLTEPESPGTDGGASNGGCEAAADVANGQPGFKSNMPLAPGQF
Test: Radioligand binding ([3H]prazosin) at cloned human α1B
I'd be grateful if you could share measured pKi for these entries.
Give bare numbers, as −log10 of the molar value.

Below, each entry is followed by its recorded pKi result.
- C[C@H](N)[C@H](O)c1ccccc1 [(-)-norephedrine]: 4.30
- COC(=O)C1=C(C)NC(C)=C(C(=O)OCCCN2CCC(c3ccccc3)(c3ccccc3)CC2)C1c1ccc([N+](=O)[O-])cc1.Cl (racemic) [Compound 1, hydrochloride]: 7.10
- COc1ccc(OC)c(C(O)CN)c1 (racemic): 4.90
- CN[C@@H](C)[C@H](O)c1ccccc1 [(-)-ephedrine]: 4.00

# input for lookup
Record CS(=O)(=O)Nc1c(O)ccc2c1CCCC2C1=NCCN1 (racemic) . Reported pKi: 4.80

---

biological target: human α1B adrenoceptor (Homo sapiens, UniProt P35368); construct: The entire coding region of the α1B receptor (1563 bp); expressed in transfected cells; assay: Phosphoinositide accumulation in cells expressing α1B; assay type: cell-based; conditions: read-out: intrinsic activity (i.a.) α1B
I'd be grateful if you could share measured Emax for these entries.
Answers are plain numbers, in %.

Below, each entry is followed by its recorded Emax result.
- CNCCc1ccc(O)c(NS(C)(=O)=O)c1: 10
- COc1ccc(SC)c2c1C[C@@H]1[C@@H](C2)OCCN1C (relative stereo): 0
- CN[C@@H](C)[C@H](O)c1ccccc1 [(-)-ephedrine]: 20
- C[C@H](N)[C@H](O)c1ccccc1 [(-)-norephedrine]: 0

# input for lookup
Record COc1ccc(OC)c(C(O)CN)c1 (racemic) . Reported Emax: 10

---

Target: human α2C adrenoceptor (Homo sapiens)
Construct: expressed in transfected cells; host or cells: LM(tk-)
Sequence (P18825 1-462): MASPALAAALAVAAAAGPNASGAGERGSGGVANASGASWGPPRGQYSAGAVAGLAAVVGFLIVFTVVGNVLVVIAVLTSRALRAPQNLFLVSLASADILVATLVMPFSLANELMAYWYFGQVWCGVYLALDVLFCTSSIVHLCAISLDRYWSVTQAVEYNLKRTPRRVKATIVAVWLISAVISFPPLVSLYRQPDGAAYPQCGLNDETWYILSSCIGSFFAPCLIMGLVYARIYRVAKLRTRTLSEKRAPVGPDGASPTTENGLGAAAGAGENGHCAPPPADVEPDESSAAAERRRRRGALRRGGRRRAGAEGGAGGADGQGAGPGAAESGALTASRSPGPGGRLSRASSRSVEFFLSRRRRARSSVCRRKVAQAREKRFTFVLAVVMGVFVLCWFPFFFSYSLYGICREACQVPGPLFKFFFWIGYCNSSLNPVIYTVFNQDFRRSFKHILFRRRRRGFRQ
Experiment: Inhibition of forskolin stimulated adenylyl cyclase, α2C
Type: cell-based
measured_parameter: pEC50
Give bare numbers, as −log10 of the molar value.

Below, each entry is followed by its recorded pEC50 result.
- COc1ccc(OC)c(C(O)CN)c1 (racemic) [ST-1059]: 6.30
- C[C@H](N)[C@H](O)c1ccccc1 [(-)-norephedrine]: 6.90

Record CN[C@@H](C)[C@H](O)c1ccccc1 [(-)-ephedrine] . Reported pEC50: 5.00

---

target: human 5-HT1A receptor (Homo sapiens); construct: expressed in transfected cells; host or cells: COS-7, transient (a cell line 5-HT1A-3, ATCC CRL 11889, is also named); experiment: Radioligand binding at human 5-HT1A
Sequence (P08908 whole entry): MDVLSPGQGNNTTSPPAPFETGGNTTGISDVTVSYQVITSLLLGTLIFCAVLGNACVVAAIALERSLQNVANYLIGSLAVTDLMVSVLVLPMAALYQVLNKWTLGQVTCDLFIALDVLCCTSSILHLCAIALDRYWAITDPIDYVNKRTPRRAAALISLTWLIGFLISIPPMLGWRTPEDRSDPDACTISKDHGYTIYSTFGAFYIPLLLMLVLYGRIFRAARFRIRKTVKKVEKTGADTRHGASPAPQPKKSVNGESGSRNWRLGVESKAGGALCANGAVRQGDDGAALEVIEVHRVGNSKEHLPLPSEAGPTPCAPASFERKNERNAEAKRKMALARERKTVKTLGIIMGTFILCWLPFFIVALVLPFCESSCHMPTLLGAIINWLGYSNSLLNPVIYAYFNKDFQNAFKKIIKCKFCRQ
measured_parameter: pKi
Answers are plain numbers, as −log10 of the molar value.

Record COc1ccc(SC)c2c1C[C@@H]1[C@@H](C2)OCCN1C (relative stereo) . Reported pKi: 7.10

---

Target: human α2B adrenoceptor (Homo sapiens, UniProt P18089)
Sequence (P18089 1-450): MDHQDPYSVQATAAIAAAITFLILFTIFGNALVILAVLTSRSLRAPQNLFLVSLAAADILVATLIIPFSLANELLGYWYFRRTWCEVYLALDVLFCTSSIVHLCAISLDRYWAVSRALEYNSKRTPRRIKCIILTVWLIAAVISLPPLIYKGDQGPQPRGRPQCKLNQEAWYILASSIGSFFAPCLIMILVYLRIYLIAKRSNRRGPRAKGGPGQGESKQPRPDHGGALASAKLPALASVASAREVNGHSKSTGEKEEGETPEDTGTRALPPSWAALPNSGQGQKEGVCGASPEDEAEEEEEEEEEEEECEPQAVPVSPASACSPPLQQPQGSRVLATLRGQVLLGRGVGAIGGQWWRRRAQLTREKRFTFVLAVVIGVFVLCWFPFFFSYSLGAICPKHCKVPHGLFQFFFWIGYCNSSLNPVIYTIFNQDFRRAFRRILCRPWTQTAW
Experiment: Radioligand binding ([3H]rauwolscine) at cloned human α2B
Set-up: expressed in transfected cells
I'd be grateful if you could share measured Ki for these entries.
Numbers only, in nM.

Below, each entry is followed by its recorded Ki result.
- C[C@H](N)[C@H](O)c1ccccc1 [(-)-norephedrine]: 251
- COc1ccc(SC)c2c1C[C@@H]1[C@@H](C2)OCCN1C (relative stereo): 63.1
- COc1ccc(OC)c(C(O)CN)c1 (racemic): 1580

# input for lookup
Record CN[C@@H](C)[C@H](O)c1ccccc1 [(-)-ephedrine] . Reported Ki: 2510

---

I'd be grateful if you could share measured pEC50 for these entries.
biological target: human α1B adrenoceptor (Homo sapiens, UniProt P35368); construct: The entire coding region of the α1B receptor (1563 bp); expressed in transfected cells; test: Phosphoinositide accumulation in cells expressing α1B; assay type: cell-based
Answers are plain numbers, as −log10 of the molar value.

Below, each entry is followed by its recorded pEC50 result.
* CS(=O)(=O)Nc1c(O)ccc2c1CCCC2C1=NCCN1 (racemic) [Compound A-61603] | 4.40
* C[C@H](N)[C@H](O)c1ccccc1 [(-)-norephedrine] | 4.50
* CN[C@@H](C)[C@H](O)c1ccccc1 [(-)-ephedrine] | 4.00

Tested on human α1B adrenoceptor (Homo sapiens, UniProt P35368): COc1ccc(OC)c(C(O)CN)c1 (racemic) [ST-1059] . Observed pEC50: 5.20

---

I'd be grateful if you could share measured Emax for these entries.
biological target: human α1A adrenoceptor (Homo sapiens, UniProt P25100); test: cell-based; format: cell-based; conditions: read-out: intrinsic activity (i.a.) α1A
Sequence (P25100 whole entry): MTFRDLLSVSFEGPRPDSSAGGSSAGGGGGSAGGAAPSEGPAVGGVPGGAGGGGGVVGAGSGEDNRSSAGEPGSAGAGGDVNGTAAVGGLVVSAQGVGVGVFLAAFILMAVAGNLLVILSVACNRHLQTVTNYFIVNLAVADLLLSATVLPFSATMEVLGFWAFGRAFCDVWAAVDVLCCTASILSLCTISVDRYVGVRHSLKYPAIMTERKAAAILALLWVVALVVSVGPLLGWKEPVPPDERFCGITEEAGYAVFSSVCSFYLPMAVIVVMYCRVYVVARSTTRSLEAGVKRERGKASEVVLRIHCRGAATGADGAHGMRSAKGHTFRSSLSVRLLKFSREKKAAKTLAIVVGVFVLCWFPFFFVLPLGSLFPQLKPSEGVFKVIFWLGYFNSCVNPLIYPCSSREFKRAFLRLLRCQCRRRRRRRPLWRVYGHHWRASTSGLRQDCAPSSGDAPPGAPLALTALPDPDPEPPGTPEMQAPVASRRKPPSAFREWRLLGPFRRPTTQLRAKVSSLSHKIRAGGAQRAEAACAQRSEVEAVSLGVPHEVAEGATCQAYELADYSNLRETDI

- COc1ccc(SC)c2c1C[C@@H]1[C@@H](C2)OCCN1C (relative stereo): 0%
- CNCCc1ccc(O)c(NS(C)(=O)=O)c1: 10%
- C[C@H](N)[C@H](O)c1ccccc1 [(-)-norephedrine]: 30%
- CN[C@@H](C)[C@H](O)c1ccccc1 [(-)-ephedrine]: 10%

Record COc1ccc(OC)c(C(O)CN)c1 (racemic) . Reported Emax: 10%

---

biological target: human α1C adrenoceptor (Homo sapiens, UniProt P35348); assay: biochemical; assay type: binding
Sequence (P35348 whole entry): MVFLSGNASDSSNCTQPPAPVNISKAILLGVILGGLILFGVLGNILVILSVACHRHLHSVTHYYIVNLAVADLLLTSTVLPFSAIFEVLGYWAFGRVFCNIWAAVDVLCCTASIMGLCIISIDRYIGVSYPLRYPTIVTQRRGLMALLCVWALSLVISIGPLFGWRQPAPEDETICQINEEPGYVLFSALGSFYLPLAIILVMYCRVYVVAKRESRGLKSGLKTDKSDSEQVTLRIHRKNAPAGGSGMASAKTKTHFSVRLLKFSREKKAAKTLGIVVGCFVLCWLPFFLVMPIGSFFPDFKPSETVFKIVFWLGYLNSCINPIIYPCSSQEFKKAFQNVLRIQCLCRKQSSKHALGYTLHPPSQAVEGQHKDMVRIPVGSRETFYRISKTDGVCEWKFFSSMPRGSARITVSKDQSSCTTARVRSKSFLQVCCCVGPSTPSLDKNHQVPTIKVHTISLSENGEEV
I'd be grateful if you could share measured Ki for these entries.
Answers are plain numbers, in µM.

- CN[C@@H](C)[C@H](O)c1ccccc1 [(-)-ephedrine]: 25.1
- COc1ccc(OC)c(C(O)CN)c1 (racemic): 7.94
- COC(=O)C1=C(C)NC(C)=C(C(=O)OCCCN2CCC(c3ccccc3)(c3ccccc3)CC2)C1c1ccc([N+](=O)[O-])cc1.Cl (racemic) [Compound 1, hydrochloride]: 0.00316

Record C[C@H](N)[C@H](O)c1ccccc1 [(-)-norephedrine] . Reported Ki: 15.8

---

I'd be grateful if you could share measured EC50 for these entries.
biological target: human α2B adrenoceptor (Homo sapiens, UniProt P18089); assay: Inhibition of forskolin stimulated adenylyl cyclase, α2B; type: cell-based; parameters: expressed in transfected cells; host or cells: Y1 cells, line Ya2B-2 (ATCC CRL 11888)
One number for each entry, in nM.

Below, each entry is followed by its recorded EC50 result.
* CN[C@@H](C)[C@H](O)c1ccccc1 [(-)-ephedrine] | 251
* COc1ccc(OC)c(C(O)CN)c1 (racemic) | 2.51

Record C[C@H](N)[C@H](O)c1ccccc1 [(-)-norephedrine] . Reported EC50: 794
